Target: p38 MAPKα isoform (MAPK14) (Homo sapiens)
Construct: purchased Life Technologies
Sequence (Q16539 whole entry, canonical isoform): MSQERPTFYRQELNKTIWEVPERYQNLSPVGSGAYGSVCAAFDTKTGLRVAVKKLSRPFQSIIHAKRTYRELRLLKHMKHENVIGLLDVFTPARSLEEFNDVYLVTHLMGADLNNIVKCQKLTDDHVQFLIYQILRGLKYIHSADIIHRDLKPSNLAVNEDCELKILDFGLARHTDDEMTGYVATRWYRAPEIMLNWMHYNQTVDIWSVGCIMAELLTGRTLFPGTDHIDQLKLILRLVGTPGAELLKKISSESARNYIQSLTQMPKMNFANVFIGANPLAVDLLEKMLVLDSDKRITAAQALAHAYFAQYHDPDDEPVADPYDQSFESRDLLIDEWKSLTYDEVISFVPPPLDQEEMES
Assay: p38 MAPKα enzyme inhibition (Z-LYTE FRET)
Type: biochemical
Settings: Table 2B, unit inferred; read-out: p38 MAPKα (Enzyme Profile)
Method: The enzyme inhibitory activities of compounds disclosed herein were determined by FRET using synthetic peptides labelled with both donor and acceptor fluorophores (Z-LYTE, Life Technologies, Paisley, UK). The inhibitory activities of compounds of the invention against the p38 MAPKα isoform (MAPK14: Life Technologies), were evaluated indirectly by determining the level of activation/phosphorylation of the target peptide of the p38 MAPKα down-stream molecule, MAPKAP-K2. […]
Provide the recorded IC50 for the entries that follow.

# get_value(readout='IC50', item= Cc1ccc(-n2nc(C(C)(C)C)cc2NC(=O)Nc2ccc(OCc3ccnc(Nc4cnc(C(=O)NCCOC(C)(C)C)cn4)c3)c3ccccc23)cc1 )
302 nM

# get_value(readout='IC50', item= CN(C)c1cncc(Nc2cc(COc3ccc(NC(=O)Nc4cc(C(C)(C)C)nn4-c4ccc(CO)cc4)c4ccccc34)ccn2)n1 )
2 nM

# get_value(readout='IC50', item= Cc1ccc(-n2nc(C(C)(C)C)cc2NC(=O)Nc2ccc(OCc3ccnc(Nc4cnc(C(=O)N5CCNC(=O)C5)cn4)c3)c3ccccc23)cc1 )
3.6 nM

# get_value(readout='IC50', item= COCCN(CCOC)C(=O)c1cnc(Nc2cc(COc3ccc(NC(=O)Nc4cc(C(C)(C)C)nn4-c4ccc(C)cc4)c4ccccc34)ccn2)cn1 )
19 nM

# get_value(readout='IC50', item= COCc1cccc(-n2nc(C(C)(C)C)cc2NC(=O)Nc2ccc(OCc3ccnc(Nc4cnc(CN5CCOCC5)cn4)c3)c3ccccc23)c1 )
11 nM

# get_value(readout='IC50', item= Cc1ccc(-n2nc(C(C)(C)C)cc2NC(=O)Nc2ccc(OCc3ccnc(Nc4cnc(C(=O)N(C)CCCO)cn4)c3)c3ccccc23)cc1 )
11 nM
